- System: Plasmodium berghei
- protocol: Antimalarial activity against Plasmodium berghei KBG13 infected in mouse assessed as disease cures at 640 mg/kg
- Type: functional, organism-based
- Parameters: dose 640 mg/kg
The source made the active and inactive calls. No cut-off for these calls is given here.
value kind: Activity

GET /value?item= COC(C)(OC)c1nc(N)nc(N)c1-c1ccc(Cl)cc1 &field=Activity returns Active

GET /value?item= CC(O)c1nc(N)nc(N)c1-c1ccc(Cl)cc1 (racemic) &field=Activity returns Active

GET /value?item= CC(=O)NC(C)c1nc(N)nc(N)c1-c1ccc(Cl)cc1 (racemic) &field=Activity returns inactive

GET /value?item= C/C(=N\NC(=N)N)c1nc(N)nc(N)c1-c1ccc(Cl)cc1 &field=Activity returns inactive

GET /value?item= CC(N)c1nc(N)nc(N)c1-c1ccc(Cl)cc1 (stereo unspecified) &field=Activity returns inactive

Now let's try a different one.
GET /value?item= CCOC(C)(OCC)c1nc(N)nc(N)c1-c1ccc(Cl)cc1 &field=Activity returns Active
